experiment: yeast display, Sf9 membrane polyspecificity reagent, FACS + sequencing; frameworks hold sequencing errors
readout.type: polyreactivity (PSR sort gate)

Guide cases for polyreactivity (PSR sort gate), answers given:
QVQLVESGGGLVQAGGSLRLSCAASGRTFNVYAMGWYRQAPGKERELVAVITNGGSTNYADSVKGRFTISRDNAKNTVYLQMNSLKPEDTAVYYCAGDYYASLTREDRDDYWGQGTQVTVSS = low polyreactivity
QVQLQESGGGLEQAGGSLRLSCAASGYISDIGTMGWYRQAPGKEREFVATIVVGSTTNYADSVKGRFTISRDNAKNTVYLKPESGRYRGVLLRGWLLAVGKFTYWGQGTQETVSS = low polyreactivity
QVQLVESGGGLVQAGGSLRLSCAASGFIFGNYAMGWYRQAAGNERELVAAISQRGGTTYYADSVKGRFTISRDNAKNTVYLQMNSLKPEDTAVYYCKAYYIGYYVDYEYWGQGTQVTVSS = high polyreactivity
QVQLVESGGGLVQAGGSLRLSCAASGSIFYPYAMGWYRQAPGKERELVAAISDSGDITYYADSVKGRFTISRDNAKNTVYLQMNSLKPEDTAVYYCAADRPWGYDYWGQGTQVSVSS = low polyreactivity

Req: Reported polyreactivity (PSR sort gate) for QVQLVESGGGLVQAGGSLRLSCAASGFTFPFNAMGWYRQAPGKERELVAAISQRTGRTYYADSVKGRFTISRDNAKNTVYLQMNSLKPEDTAVYYCNARTGTTGYGRYDYWGQGTQVTVSS : what is it?
Resp: high polyreactivity
